Values from ChEMBL document CHEMBL1123325

- Test system: L1210
- assay explanation: Tested in vivo for 50% lethal dose in L1210 mouse leukemia cells
- Type: functional
test readout: log10 LD50 (log10 of the value in mg/kg)
Kindly note that the scale is log10 and the underlying LD50 is in mg/kg.

Report the value of log10 LD50 obtained on L1210 for "C1CN(P2(N3CCOCC3)=N[P@](N3CCOCC3)(N3CC3)=N[P@@](N3CCOCC3)(N3CC3)=N2)CCO1" .
2.90

Fetch value of log10 LD50 on L1210 for CNP1(N2CC2)=NP(N2CC2)(N2CC2)=NP(N2CC2)(N2CC2)=N1 (stereo not given) .
1.65

// fetch log10 LD50 for "C1CN1P1(N2CC2)=NP(N2CC2)(N2CC2)=NP(N2CC2)(N2CC2)=N1" ; system: L1210
1.70

Give reported log10 LD50 for "CNP1(NC)=N[P@@](NC)(N2CC2)=NP(NC)(NC)=N[P@@](NC)(N2CC2)=N1" (L1210)
2.30

# lookup: L1210 log10 LD50, key = "CN(C)P1(N(C)C)=N[P@](N(C)C)(N2CC2)=NP(N(C)C)(N(C)C)=N[P@@](N(C)C)(N2CC2)=N1"
2.18

Send back L1210 log10 LD50 of "CNP1(NC)=NP(NC)(NC)=N[P@@](NC)(N2CC2)=N[P@](NC)(N2CC2)=N1" only.
2.00

Give log10 LD50 only, for CNP1(NC)=NP(NC)(NC)=NP(NC)(N2CC2)=N1 (stereo not given) , using L1210 data.
2.90

// fetch log10 LD50; item: "CNP1(NC)=N[P@](NC)(N2CC2)=N[P@](NC)(N2CC2)=N1" ; system: L1210
1.85

Give log10 LD50 only, for "C1CCN(P2(N3CCCC3)=NP(N3CC3)(N3CC3)=NP(N3CC3)(N3CC3)=N2)C1" , using L1210 data.
2.34

Would you please give the reported log10 LD50 of "C1CCN(P2(N3CCCCC3)=NP(N3CC3)(N3CC3)=NP(N3CC3)(N3CC3)=N2)CC1" with L1210?
2.40

----------
Examples of compounds with documented LD50 follow.
- Test system: L1210
- assay explanation: Tested in vivo for 50% lethal dose in L1210 mouse leukemia cells
- Type: functional
Output spec: scalar in mg/kg, unitless text.

Consider the compound "C1CN(P2(N3CCOCC3)=NP(N3CC3)(N3CC3)=NP(N3CC3)(N3CC3)=N2)CCO1" tested on L1210; state its LD50.
400

Find the measured LD50 of "CCOC(=O)CNP1(NCC(=O)OCC)=NP(N2CC2)(N2CC2)=NP(N2CC2)(N2CC2)=N1" with L1210 as test system.
170

For L1210, give the measured LD50 of the entry "CNP1(NC)=N[P@](NC)(N2CC2)=NP(NC)(NC)=N[P@@](NC)(N2CC2)=N1"
200

Answer briefly: LD50 recorded on L1210 for "C1CCN([P@@]2(N3CC3)=NP(N3CC3)(N3CC3)=N[P@@](N3CCCCC3)(N3CC3)=N2)CC1"
140

GET LD50 where system = L1210 and item = "CNP1(NC)=NP(NC)(NC)=NP(N2CC2)(N2CC2)=N1"
600

Provide the reported LD50 (system: L1210) for C1CCN(P2(N3CC3)=NP(N3CC3)(N3CC3)=NP(N3CC3)(N3CC3)=N2)CC1 (centres undefined)
80

Lab note: L1210 assay, enter LD50 for O=S1(N2CC2)=NP(N2CC2)(N2CC2)=NP(N2CC2)(N2CC2)=N1 (centres undefined) here
250

Fill in LD50 for "C1CN([P@@]2(N3CC3)=NP(N3CC3)(N3CC3)=N[P@@](N3CCOCC3)(N3CC3)=N2)CCO1" tested with L1210.
250

Give reported LD50 for "CNP1(NC)=N[P@@](NC)(N2CC2)=N[P@](NC)(N2CC2)=N1" (L1210)
50
